Data origin: the RepoRT retention time repository (doi:10.1016/j.foodchem.2021.129757)

Assay: RP, Phenomenex Luna C18, 150 × 4.6 mm, 3 µm, 25 °C, 0.5 mL/min, estimated dead time 3.2 min; A: water + 0.1% formic acid, pH 3; B: acetonitrile + 0.1% formic acid, pH 3; gradient (min/%B) 0/0 30/30 35/40 50/80 52/80 60/0 65/0
Conditions: stereoisomer not certain
The label is Criterion met for LC retention time below 30 min and Criterion not met for LC retention time equal to or exceeding 30 min.

Dear colleague, could you confirm whether LC retention time of `O=C(O)C=Cc1ccc(O)cc1` falls below 30 min? Thanks.
Criterion met

Dear colleague, could you confirm whether LC retention time of O=C(O)C1OC(Oc2c(-c3ccc(O)cc3)oc3cc(O)cc(O)c3c2=O)C(O)C(O)C1O (configuration not stated) [Kaempferol-3-O-glucuronide] falls below 30 min? Thanks.
Criterion met

Dear colleague, could you confirm whether LC retention time of `COc1ccc(C(=O)O)cc1OC` falls below 30 min? Thanks.
Criterion met

Dear colleague, could you confirm whether LC retention time of O=c1c(OS(=O)(=O)O)c(-c2ccc(O)c(O)c2)oc2cc(O)cc(O)c12 [Quercetin 3-O-sulfate] falls below 30 min? Thanks.
Criterion not met

Dear colleague, could you confirm whether LC retention time of `O=c1c(-c2ccc(O)cc2)coc2cc(O)cc(O)c12` falls below 30 min? Thanks.
Criterion not met

Dear colleague, could you confirm whether LC retention time of O=S(=O)(O)Oc1ccccc1O [Catechol O-sulfate] falls below 30 min? Thanks.
Criterion met

Dear colleague, could you confirm whether LC retention time of COc1cc(CC2COC(c3ccc(O)c(OC)c3)C2CO)ccc1O (single isomer, unassigned; (+)) [(+)-Lariciresinol] falls below 30 min? Thanks.
Criterion not met
